The following molecules are listed with their measured photoluminescence quantum yield values.
Assay: photoluminescence quantum yield (fraction); solvent given as SMILES
Details: in ClCCl
Readout label: photoluminescence quantum yield

CC(C)[Si](C#Cc1ccc(C#C[Si](C(C)C)(C(C)C)C(C)C)c2nc3ccccc3nc12)(C(C)C)C(C)C ... 0.02
CCOC(=O)/C(C#N)=C/c1cc2c3ccccc3n(C)c2cc1OC ... 0.003
COc1ccc(/C=C/c2cc(/C=C/c3ccc(N(c4ccccc4)c4ccccc4)cc3)nc(/C=C/c3ccc(N(C)C)cc3)n2)cc1 ... 0.02
F[B-]1(F)n2c(Cl)c(Cl)c(Br)c2C(Oc2ccccc2)=C2C(Br)=C(Cl)C(Cl)=[N+]21 ... 0.05
CN(C)c1ccc(C2=Nc3sc4cc(C(F)(F)F)ccc4[n+]3[B-](F)(F)O2)cc1 ... 1
CCn1c2ccccc2c2cc(-c3cc(-c4ccc5c(c4)c4ccccc4n5CC)nc(N4CCCCC4)n3)ccc21 ... 0.15
N#Cc1ccc(N)c2nonc12 ... 0.195
CCCCCCCCN1c2ccccc2Sc2cc(/C=C/c3ccc(N(c4ccc(/C=C/c5ccc6c(c5)Sc5ccccc5N6CCCCCCCC)cc4)c4ccc(/C=C/c5ccc(/C=C/c6ccc(N(c7ccc(/C=C/c8ccc9c(c8)Sc8ccccc8N9CCCCCCCC)cc7)c7ccc(/C=C/c8ccc9c(c8)Sc8ccccc8N9CCCCCCCC)cc7)cc6)c6nsnc56)cc4)cc3)ccc21 ... 0.003
Cn1cc(-c2nc3ccccc3nc2C#Cc2ccc(C#N)cc2)c2ccccc21 ... 0.15
CCn1c2ccccc2c2cc(-c3cc(-c4ccc5c(c4)c4ccccc4n5CC)nc(S(C)(=O)=O)n3)ccc21 ... 0.72
CCC1=C(C)C2=C(c3c4ccccc4c(-c4ccccc4)c4ccccc34)c3c(C)c(CC)c(C)n3[B-](F)(F)[N+]2=C1C ... 0.833
C(=C\c1nc2c(c(N3CCOCC3)n1)CCCC2)/c1ccccc1 ... 0.023
CCC1=C(C)C2=Cc3c4ccccc4c4n3[B-](c3ccncc3)(Oc3ccccc3-4)[N+]2=C1C (stereo not given) ... 0.7
N#Cc1nc2c(nc1C#N)C1c3ccc(N(c4ccccc4)c4ccccc4)cc3C2c2ccc(N(c3ccccc3)c3ccccc3)cc21 ... 0.002
Fc1ccc(N(c2ccc(F)cc2)c2ccc3c4cccc5c(N(c6ccc(F)cc6)c6ccc(F)cc6)ccc(c6cccc2c63)c54)cc1 ... 0.64
CC(C)(C)c1ccc2c(c1)sc1[n+]2[B-](F)(F)n2c(c3cccc4c(Br)ccc2c43)=N1 ... 0.72
CCn1c2cc(OC)ccc2c2c3nsnc3c3c4ccc(OC)cc4n(CC)c3c21 ... 0.44
Cc1ccc(C2=C3C=CC(C#Cc4ccccc4)=[N+]3[B-](F)(F)n3c(C#Cc4ccccc4)ccc32)cc1 ... 1
CN(C)c1ccc(/C=C/c2nc3ccc(N(C)C)cc3oc2=O)cc1 ... 0.55
COC(=O)C(Cc1ccc2oc(-c3ccc(N(C)c4ccccc4)cc3)nc2c1)NC(=O)OC(C)(C)C (stereo not given) ... 0.45
